- Tested on: SNB-19 CNS
- MEASUREMENT_PROTOCOL: NCI tumour cell line growth inhibition, 48 h; in the data active means GI50 below about 0.43 µM; inactive means the rest
Log the outcome using a class from true (1) (active), false (0) (inactive)

I would be grateful if you could indicate the recorded call for Nc1cc2ccncc2c2ccccc12 . false (0)

I would be grateful if you could indicate the recorded call for N#CSc1cc(-c2nc3ccccc3o2)ccc1N . false (0)

* * *

- Tested on: M14 melanoma
- MEASUREMENT_PROTOCOL: NCI tumour cell line growth inhibition, 48 h
I'd appreciate it if you could supply TGI values for the items below.

Below, 4 compounds whose answers are already recorded.
In [3]: df
Out[3]:
                                   compound  target_system  experimental_value
0  CN1CCN(Cc2ccc(NC(=O)c3cncc(C#Cc4cncc5[nH]ncc45)c3)cc2C(F)(F)F)CC1   M14 melanoma            0.706 µM
1  COC(=O)C12CC(NC(=O)c3csc([C@@H](C[C@H](C(C)C)N(C)C(=O)[C@@H](NC(=O)[C@H]4CCCCN4C)C(C)C)OC(C)=O)n3)(C1)C2   M14 melanoma           > 33.3 µM
2  CN1CCN(C2CC(=O)c3c(Cl)sc(Cl)c32)CC1 (stereo unspecified)   M14 melanoma             20.7 µM
3            O=C(Nc1ccc(I)cc1F)c1cc(F)ccc1O   M14 melanoma             3.26 µM

Here are 6 compounds. What values of TGI were reported for them?
1. Cc1nc2cccc(F)c2c(=O)n1-c1nnc(C2CC2)s1
2. CCN(CC)CCC1(C(=O)OC)SCCc2ccc(C)cc21 (stereo unspecified)
3. CC(C)S(=O)(=O)ON1C(=O)c2ccc([N+](=O)[O-])cc2C1=O
4. COc1ccc(Nc2ccnc3cc(Cl)ccc23)cc1CN(CCCl)CCCl
5. O=S1(=O)OCCOS(=O)(=O)C1S(=O)(=O)c1cccc2ccccc12
6. O=C(c1cccs1)N(C(=O)N1CCCCC1)c1ccccc1

1: > 10 µM; 2: > 100 µM; 3: > 100 µM; 4: 7.92 µM; 5: > 100 µM; 6: > 100 µM

* * *

- System: LOX IMVI melanoma
- MEASUREMENT_PROTOCOL: NCI tumour cell line growth inhibition, 48 h
REPORTED_ENDPOINT: TGI

Below, 4 molecules whose answers are already recorded.
MOLECULE	EXPERIMENTAL_VALUE
Oc1cccc(-c2cn3cc(Cl)ccc3n2)c1	> 100 µM
O=[P+](O)c1cc2c3ccccc3ccc2c2ccccc12	> 100 µM
COc1ccc(C(OCC2OC(n3ccc(Oc4c(F)c(F)c(F)c(F)c4F)nc3=O)CC2OP(OCCC#N)N(C(C)C)C(C)C)(c2ccccc2)c2ccc(OC)cc2)cc1 (stereo not given)	> 100 µM
CCN(CC)CCn1nc2c3c(cccc3c1=O)-c1ccccc1-2	4.74 µM

Next:
Please state recorded TGI (tested on LOX IMVI melanoma) of C/C(CC(=O)Nc1cc(Cl)c(Cl)cc1Cl)=N\NS(=O)(=O)c1ccc(C)cc1 > 100 µM

* * *

- Test system: OVCAR-5 ovarian
- MEASUREMENT_PROTOCOL: NCI tumour cell line growth inhibition, 48 h; in the data active = GI50 below about 0.43 µM; inactive = the rest
Log the outcome using a class from label 1 (active), label 0 (inactive)

I would be grateful if you could indicate the recorded call for C=C1C(=O)O[C@H]2[C@H]1CC/C(COC(=O)c1ccc(Br)cc1)=C\CC[C@@]1(C)O[C@@H]21 . label 0

I would be grateful if you could indicate the recorded call for CCCCCCCC(=O)O[C@H]1[C@H]2[C@@H](CC1(C)C)C(=O)[C@]13O[C@H]1C(=O)[C@]1(CO1)[C@]23C . label 0

I would be grateful if you could indicate the recorded call for CC(=O)[O-].CC(=O)[O-].CC(=O)[O-].CC(=O)[O-].CO.CO.CO.[Rh+2].[Rh+2].c1ccc(-c2ccccn2)nc1 . label 0

I would be grateful if you could indicate the recorded call for c1cc[c]([Sn]([O]c2cccc3cccnc23)([c]2ccccc2)[c]2ccccc2)cc1 . label 1
